Collected set of IC50 measured with Tyrosine-protein kinase JAK1 (Homo sapiens) across studies.

Study these solved cases before continuing.
>  <compound>
Nc1cc2ccc1-c1ccnc(n1)Nc1ccc(OCC3CC(F)(F)C3)c(c1)COc1ccc(cc1)NC2=O

>  <IC50>
> 10000 nM

$$$$
>  <compound>
CCS(=O)(=O)N1CC(CC#N)(n2cc(-c3nc(Nc4cnn(CC(=O)O)c4)nc4ccsc34)cn2)C1

>  <IC50>
< 50 nM

$$$$
>  <compound>
CS(=O)(=O)C(CCNC(=O)c1noc2c1CN(c1ncnc3[nH]ccc13)CC2)C(F)(F)F (stereo not shown)

>  <IC50>
100 to 500 nM

$$$$

Attention now shifts to the item below.
Exercise: Return the recorded IC50 value; entry: "N#CC1(CC(=O)Nc2cccc3c(-c4ccnc(NC(=O)C5CC5)c4)c[nH]c23)CC1"
Key: 100 to 1000 nM

* * *

Collected set of pIC50 measured with Tyrosine-protein kinase JAK1 (Homo sapiens) across studies.
pIC50: −log10 of the molar value.

Study these solved cases before continuing.
>  <compound>
CC(C)NC(=O)c1ccc(N2CC(CC#N)(n3cc(-c4ncnc5[nH]ccc45)cn3)C2)c(F)c1

>  <pIC50>
> 8.00

$$$$
>  <compound>
CCOC(=O)c1cnc2[nH]ccc2c1-c1cnn(C2(CC#N)CN(S(=O)(=O)CC)C2)c1

>  <pIC50>
≥ 8.00

$$$$
>  <compound>
C[C@@H](O)c1nc2cnc3ccsc3c2n1[C@H]1CCN(CCC#N)C1

>  <pIC50>
≥ 6.00

$$$$
>  <compound>
CCOCCOC(=O)Cn1cc(Nc2ncc3ccn(CC(CC)C(C)C)c3n2)cn1 (stereo not shown)

>  <pIC50>
> 7.00

$$$$
>  <compound>
Cn1cc(-c2cc3nccn3c(-c3ccn(C4(CC#N)CN(C(=O)OC(C)(C)C)C4)n3)n2)cn1

>  <pIC50>
< 6.00

$$$$
>  <compound>
Cn1cc(-c2cc3nccn3c(-c3ccn(C4(CC#N)CN(CC(F)(F)F)C4)n3)n2)ccc1=O

>  <pIC50>
6.00 to 7.00

$$$$
>  <compound>
Cc1cc(Nc2ncc(Cl)c(NC3CCN(c4ccc(C#N)cn4)CC3)n2)n[nH]1

>  <pIC50>
> 9.52

$$$$
>  <compound>
Cc1ccc(NC(=O)c2cc(NCCCN(C)C)cc(C(F)(F)F)c2)cc1-c1ccc2c(c1)[nH]c1ncncc12

>  <pIC50>
≥ 6.30

$$$$
>  <compound>
CCCO[C@@H]1CNc2cc(Nc3ncc(C(N)=O)c(NC4CC4)n3)ccc2OC1

>  <pIC50>
7.00 to 8.00

$$$$
>  <compound>
Cc1cnc2nc1Nc1cccc(c1)CCNC(=O)c1c(F)cc(cc1F)-c1cnc(F)c(c1)N2

>  <pIC50>
6.00 to 7.00

$$$$

Exercise: Identify measured pIC50 obtained with Tyrosine-protein kinase JAK1 (Homo sapiens) for N#CC1CCOCC1n1cc(C(N)=O)c(Nc2ccc3c(c2)C=CB(O)O3)n1 (stereo not shown) .
Key: > 8.00

Exercise: Identify measured pIC50 obtained with Tyrosine-protein kinase JAK1 (Homo sapiens) for "C[C@@H](CO)n1cc(Nc2nc(-c3cnn(C4(CC#N)CN(S(C)(=O)=O)C4)c3)c3sccc3n2)cn1" .
Key: > 7.30

* * *

Collected set of pIC50 measured with Tyrosine-protein kinase JAK1 (Homo sapiens) across studies.
pIC50: −log10 of the molar value.

>  <compound>
C[C@@H](O)c1cc2cnc3ccsc3c2n1[C@H]1CC[C@H](CC#N)CC1

>  <result_value>
≥ 7.00

$$$$

Exercise: Identify measured pIC50 obtained with Tyrosine-protein kinase JAK1 (Homo sapiens) for "Cc1cnc(Nc2ccc3c(c2)B(O)OC3)nc1N1CC(CC#N)(N2CCN3C[C@H](F)C[C@H]3C2)C1" .
Key: > 6.92

Exercise: Identify measured pIC50 obtained with Tyrosine-protein kinase JAK1 (Homo sapiens) for "N#CCC1(n2cc(-c3c(F)cnc4[nH]ccc34)cn2)CN(C2CCN(C(=O)c3cc(F)cc(C#N)c3)CC2)C1" .
Key: ≥ 8.30

Exercise: Identify measured pIC50 obtained with Tyrosine-protein kinase JAK1 (Homo sapiens) for "CC[C@@H]1C[C@H](CC#N)CN1n1cnc2cnc3[nH]ccc3c21" .
Key: 7.36

Exercise: Identify measured pIC50 obtained with Tyrosine-protein kinase JAK1 (Homo sapiens) for "Cc1cc(Nc2ncc(C)c(N3CC(CC#N)(N4CCCCCC4)C3)n2)sn1" .
Key: > 8.00

Exercise: Identify measured pIC50 obtained with Tyrosine-protein kinase JAK1 (Homo sapiens) for "COc1cccc(F)c1COc1ccc2cc1COCC[C@@H](C)CNC(=O)c1ccc(c(N)c1)-c1ccnc(n1)N2" .
Key: 5.00 to 6.00

Exercise: Identify measured pIC50 obtained with Tyrosine-protein kinase JAK1 (Homo sapiens) for "N#CCC1(n2ccc(-c3ncnc4[nH]ccc34)c2)CN(C2CCN(C(=O)c3ccc(F)c(F)c3F)CC2)C1" .
Key: ≥ 8.30

Exercise: Identify measured pIC50 obtained with Tyrosine-protein kinase JAK1 (Homo sapiens) for "CCCN1CCC(CC#N)(n2cc(-c3nc(-c4cnn(C)c4)cc4nccn34)cn2)CC1" .
Key: < 6.00

* * *

Collected set of IC50 measured with UniProtKB P23458 across studies.

Study these solved cases before continuing.
>  <compound>
N#CC[C@H]1CC[C@H](n2c(CO)nc3cnc4ccsc4c32)CO1

>  <measured_property>
IC50

>  <result_value>
≤ 100 nM

$$$$
>  <compound>
COc1cc(F)cc(C(=O)N2CCC(N3CC(CC#N)(n4cc(-c5ncnc6[nH]ccc56)cn4)C3)CC2)c1

>  <measured_property>
IC50

>  <result_value>
≤ 5 nM

$$$$
>  <compound>
O=C(CCC(F)(F)F)NC12CC(n3cnc4cnc5[nH]ccc5c43)(C1)C2

>  <measured_property>
IC50

>  <result_value>
18.7 nM

$$$$

Exercise: Return the recorded IC50 value; entry: "Cn1nnc2cc(Nc3ncc(Cl)c(NC4CCN(c5ccc(C#N)nn5)CC4)n3)ccc21"
Key: < 0.3 nM

Exercise: Return the recorded IC50 value; entry: CC1=C(C)c2cc(Nc3nn([C@@H]4COCC[C@H]4C#N)cc3C(N)=O)ccc2OB1O (relative stereo)
Key: < 10 nM

* * *

Collected set of IC50 measured with Tyrosine-protein kinase JAK1 (Homo sapiens, UniProt P23458) across studies.

Study these solved cases before continuing.
>  <smiles_notation>
CC(C)=C(C#N)C(=O)Nc1cccc2c(-c3ccnc(NC(=O)C4CC4)c3)c[nH]c12

>  <result_value>
< 100 nM

$$$$
>  <smiles_notation>
Cc1cc(Nc2ncc(C)c(N3CC(C)(CNC(=O)C4CN(C)C4)C3)n2)sn1

>  <result_value>
< 400 nM

$$$$
>  <smiles_notation>
C[C@@H](O)c1nc2cnc3ccsc3c2n1[C@H]1CC[C@@H](C#N)CC1

>  <result_value>
≤ 100 nM

$$$$
>  <smiles_notation>
N#CCC1(n2cc(-c3ncnc4[nH]ccc34)cn2)CN(C2CCN(C(=O)c3cc(CO)nc(C(F)(F)F)n3)CC2)C1

>  <result_value>
≤ 5 nM

$$$$
>  <smiles_notation>
CCC(CC)Cn1ccc2cnc(Nc3cnn(CC(=O)OCCO)c3)nc21

>  <result_value>
< 100 nM

$$$$

Exercise: Identify measured IC50 obtained with Tyrosine-protein kinase JAK1 (Homo sapiens, UniProt P23458) for "Cc1cc(Nc2ncc(C)c(N3CC(CC#N)(N4CCN5CC6(CC6)C[C@H]5C4)C3)n2)sn1" .
Key: < 5 nM

* * *

pIC50: −log10 of the molar value.
Collected set of pIC50 measured with Tyrosine-protein kinase JAK1 (Homo sapiens) across studies.

Study these solved cases before continuing.
>  <molecule>
Nc1cc2ccc1-c1ccnc(n1)Nc1ccc(OC3COC3)c(c1)COCCCCNC2=O

>  <target_desc>
Tyrosine-protein kinase JAK1 (Homo sapiens)

>  <pIC50>
5.00 to 6.00

$$$$
>  <molecule>
COCCCCO[C@H]1CNc2cc(Nc3ncc(C(N)=O)c(NC4CC4)n3)ccc2OC1

>  <target_desc>
Tyrosine-protein kinase JAK1 (Homo sapiens)

>  <pIC50>
> 8.00

$$$$

Exercise: Identify measured pIC50 obtained with Tyrosine-protein kinase JAK1 (Homo sapiens) for "CC[C@@H](CCF)n1cc(-c2nc(-c3cnn(C)c3)cc3nccn23)cn1" .
Key: 6.00 to 7.00

Exercise: Identify measured pIC50 obtained with Tyrosine-protein kinase JAK1 (Homo sapiens) for N#CC1CCN(C(=O)NC23CC(n4cnc5cnc6[nH]ccc6c54)(C2)C3)C1 (stereo not shown) .
Key: 7.16

Exercise: Identify measured pIC50 obtained with Tyrosine-protein kinase JAK1 (Homo sapiens) for "CC(C)NC(=O)c1ccc(N2CC(CC#N)(n3cc(-c4ncnc5[nH]ccc45)cn3)C2)cn1" .
Key: > 8.00
